- measurement_notes: Metabolic stability in mouse liver microsomes
- Type: in vitro ADME
Answer N if Metabolic Stability Study M = mouse is under 80 µL/min/mg, and Y if it is 80 µL/min/mg or more.

> print(dat)
                                    compound  cat
 1  COc1cc(S(=O)(=O)Cc2ccc3c(c2)CN(C)C3)ccc1NC(=O)NC(C)c1cccc2ccccc12 (stereo not shown) [H1425]    Y
 2  CNC(C)(C)Cc1ccc(NS(=O)(=O)c2ccc(NC(=O)N[C@@H](C)c3ccc(-c4cnccn4)c(Cl)c3Cl)cc2)cc1 [H0941]    N
 3  CC(NC(=O)Nc1ccc(S(=O)(=O)Cc2ccc3c(c2)CNC3)cc1)c1cccc2ccccc12.Cl (stereo not shown) [H1149]    N
 4  C[C@@H](NC(=O)Nc1ccc(S(=O)(=O)Cc2ccc3c(c2)CNC3)cc1)c1ccccc1 [H1214]    N
 5  CC(NC(=O)Nc1ccc(S(=O)(=O)Cc2nc3c(s2)CN(C)CC3)cc1)c1cccc(Cl)c1Cl (stereo not shown) [H1379]    Y
 6  CC(NC(=O)Nc1ccc(S(=O)(=O)Cc2ccc3c(c2)CN(C)C3)cc1)c1ccc(F)cc1 (stereo not shown) [H1268]    N
 7  CC(NC(=O)Nc1ccc(S(=O)(=O)Cc2ccc3c(c2)CCN(C)C3)cc1)c1ccccc1Cl (stereo not shown) [H1344]    Y
 8  Cc1oc(=O)oc1CN1CCc2cc(CS(=O)(=O)c3ccc(NC(=O)N[C@@H](C)c4cccc(Cl)c4Cl)cc3)ccc2C1 [H1067]    Y
 9  CC(NC(=O)Nc1ccc(S(=O)(=O)Cc2cc3c(s2)CN(C)CC3)cc1)c1cccc(Cl)c1Cl (stereo not shown) [H1384]    Y
10  C[C@@H](NC(=O)Nc1ccc(S(=O)(=O)Cc2ccc3c(c2F)CN(C)C3)cc1)c1ccccc1 [H1363]    Y
11  Cc1cc(S(=O)(=O)Cc2ccc3c(c2)CN(C)C3)ccc1NC(=O)NC(C)c1ccccc1 (stereo not shown) [H1447]    N
12  C[C@@H](NC(=O)Nc1ccc(S(=O)(=O)Nc2ccc3c(c2)CN(C)C3)cc1)c1ccccc1 [H1337]    N
13  CC(NC(=O)Nc1ccc(S(=O)(=O)Cc2ccc3c(c2)CN(C)C3)cc1)c1cc(F)cc(F)c1 (stereo not shown) [H1446]    N

* * *

PK Vd p.o. reference
- measurement_notes: Animal PK study in mouse via i.v., p.o. and s.c. administration
- Assay type: in vivo
- particulars: p.o.
measure_name: PK Vd p.o. (L/kg)

> print(dat)
                                   compound  assay.value
1  COc1ccc([C@@H](C)NC(=O)Nc2ccc(S(=O)(=O)Cc3ccc4c(c3)CCN(C)C4)cc2)c(Cl)c1Cl        24.97
2  COc1cc(S(=O)(=O)Cc2ccc3c(c2)CN(C)C3)ccc1NC(=O)NC(C)c1ccccc1 (centres unmarked)         86.8
3  COc1cc(S(=O)(=O)Cc2ccc3c(c2)CCNC3)ccc1NC(=O)NC(C)c1cccc(Cl)c1Cl.Cl (centres unmarked)        326.9
4  CC(NC(=O)Nc1ccc(S(=O)(=O)Cc2ccc3c(c2)CNC3)cc1)c1ccc(F)cc1 (centres unmarked)          307
5  CC(c1ccccc1)N(C)C(=O)Nc1ccc(S(=O)(=O)Cc2ccc3c(c2)CN(C)C3)cc1 (centres unmarked)        42.87
6  CC(NC(=O)Nc1ccc(S(=O)(=O)Cc2ccc3c(c2)CN(C)C3)cc1O)c1ccccc1 (centres unmarked)        242.2
7  CC(NC(=O)Nc1ccc(S(=O)(=O)Nc2ccc3c(c2)CCN(C)C3)cc1)c1cccc(Cl)c1Cl (centres unmarked)          170
8  C[C@H](NC(=O)Nc1ccc2c(c1)CC(c1ccc3c(c1)CNC3)S2(=O)=O)c1ccccc1 (some centres unmarked)        627.9

Data credit: patent US10501479B2
